Taken from patent US20220348592A1.

- Test: Cytotoxicity in HepG2.117 cells, ATPlite Luminescence Assay
- Assay type: cell-based, human
- Conditions Used: human, incubated for 3 days, mean value, read-out: TOX-HepG2.117 CC50 (μM, mean value)
Assay Readout: CC50 at 3 days

[
  {
    "Compound": "C[C@@H]1Cc2nn3c(c2CN1C(=O)c1ccn2cc(C(F)(F)F)nc2c1)C(=O)N(Cc1ccccn1)CC3",
    "CC50 at 3 days": "> 50 µM"
  },
  {
    "Compound": "COc1ccc([C@@H](C)N2CCn3nc4c(c3C2=O)CN(C(=O)c2ccc(Cl)c(Cl)c2)[C@H](C)C4)cc1",
    "CC50 at 3 days": "> 50 µM"
  },
  {
    "Compound": "COc1ccc(CN2CCn3nc4c(c3C2=O)CN(C(=O)c2ccc(Cl)c(Cl)c2)[C@H](C)C4)cc1C#N",
    "CC50 at 3 days": "> 50 µM"
  }
]

Looking up CN1O[C@@H](CO)Cn2nc3c(c2C1=O)CN(C(=O)c1ccc(Cl)c(Cl)c1)CC3 (single isomer, unassigned) , I found its CC50 at 3 days recorded as > 50 µM

Looking up C[C@@H]1Cc2nn3c(c2CN1C(=O)c1ccc(Cl)c(Cl)c1)C(=O)N(Cc1nc(C2CC2)nn1C)CC3 , I found its CC50 at 3 days recorded as > 50 µM

Looking up CC(c1nnnn1C1CC1)N1CCn2nc3c(c2C1=O)CN(C(=O)c1ccc(Cl)c(Cl)c1)[C@H](C)C3 (stereo partly drawn) , I found its CC50 at 3 days recorded as > 50 µM
